Data origin: patent US11279694B2

The following compounds are shown together with reported AUC0→∞, analyte: prodrug compound values.
test.name: Pharmacokinetic testing of representative compounds in CD-1 mice, oral dosing
Assay type: in vivo
experimental.parameters: dosed orally 10 mg/kg, analyte = dosed prodrug, mean ± SD, nd = none detected

[
  {
    "compound": "CCOC(=O)O[C@@H]1CN(C)CC[C@@H]1c1c(O)cc(O)c2c(=O)cc(-c3ccccc3Cl)oc12 [Compound 10]",
    "property.measured": "AUC0→∞, analyte: prodrug compound",
    "assay.result": "646.8 ± 219.4 ng · h/mL or ng · h/G"
  },
  {
    "compound": "CCNC(=O)O[C@@H]1CN(C)CC[C@@H]1c1c(O)cc(O)c2c(=O)cc(-c3ccccc3Cl)oc12 [Compound 12]",
    "property.measured": "AUC0→∞, analyte: prodrug compound",
    "assay.result": "281.4 ± 28.3 ng · h/mL or ng · h/G"
  },
  {
    "compound": "COC(=O)O[C@@H]1CN(C)CC[C@@H]1c1c(O)cc(O)c2c(=O)cc(-c3ccccc3Cl)oc12 [Compound 11]",
    "property.measured": "AUC0→∞, analyte: prodrug compound",
    "assay.result": "275.1 ± 24.1 ng · h/mL or ng · h/G"
  }
]

Here's the next entry for you.
Please report the measured AUC0→∞, analyte: prodrug compound for CNC(=O)O[C@@H]1CN(C)CC[C@@H]1c1c(O)cc(O)c2c(=O)cc(-c3ccccc3Cl)oc12 [Compound 13] 620.2 ± 147.7 ng · h/mL or ng · h/G
